All values here come from PubChem BioAssay (NCI).

test system: EKVX NSCLC; assay: NCI tumour cell line growth inhibition, 48 h
I'd be grateful if you could share measured TGI for these entries.

Q: Value lookup for TGI; key = COc1ccc(C(C#N)=C2C=CC(=NO)C=C2)cc1
A: 32.7 µM

Q: Could you share which TGI value was measured for COC(=O)CCCC1(CCCC(=O)OC)CCCCCCCCC(CCCC(=O)OC)(CCCC(=O)OC)C(=O)C1=O ?
A: > 100 µM

Q: For the compound O=C1CCCCC/C1=C\c1cccc([N+](=O)[O-])c1 , what TGI is on record?
A: > 100 µM

Q: GET /values?readout=TGI&item= Cc1nc(N)sc1C(=O)Nc1ncn[nH]1
A: > 100 µM

Q: I would be grateful if you could share the reported TGI for COc1cc(OCc2nc3cc(C(F)(F)F)ccc3nc2-c2ccccc2)cc(OC)c1OC .
A: > 100 µM

Q: What does the data say about its TGI? Entry: NC(=O)COc1c(Br)cc(Br)cc1Br
A: > 100 µM

Q: Record request: TGI value, item N=S(=O)(c1ccccc1)c1ccccc1
A: > 100 µM

Q: Entry NCCOCn1cc(Cc2cccc(OCc3ccccc3)c2)c(=O)[nH]c1=O : reported TGI = ?
A: > 100 µM

Q: Requested field: TGI. Item: CC1(C)OC2CC3COC(=O)C3CC2O1 (centres undefined)
A: > 100 µM

Q: Record request: TGI value, item O=c1cc(-c2ccccc2)oc2ccc(OC/C(=N/O)c3ccc(F)cc3)cc12
A: 15.8 µM

Q: Sample O=C(O)CN1CCCC(Cc2c[nH]c3ccccc23)C1 (centres undefined) — what was its TGI?
A: > 100 µM

Q: What measured TGI goes with Cn1cnc([N+](=O)[O-])c1Sc1nnnn1C ?
A: 40.8 µM

Q: Looking for the measured TGI of O=S(=O)(c1ccccc1)c1nccs1 , can you help?
A: > 100 µM

Q: Dear colleague, I am looking for the recorded TGI of the following compound: COc1cc(N)c2[nH]c3c(C)ccc(C)c3c2c1
A: > 100 µM

Q: Name the reported TGI value associated with the compound Nc1ncn(C2OC(COP(=O)(O)O)C(O)C2O)c(=O)n1 (centres undefined)
A: > 79 µM

Q: Could you tell me which TGI is on file for COC(=O)c1ccccc1NC(=S)NN(C)C ?
A: > 100 µM

Q: Could you share which TGI value was measured for CCC#CC[C@H](O)C/C=C1/C(=O)C=C[C@@H]1C/C=C\CCCC(=O)OC ?
A: 7.73 µM

Q: Need TGI of CCNC(=O)NNc1ncnc2c1c(-c1ccc(Cl)cc1)cn2-c1ccc(C)cc1 , thanks.
A: 65.4 µM

Q: What measured TGI goes with CCCCCCCN(CCCCCCC)C(=N)c1ccnc2ccccc12 ?
A: 3.15 µM

Q: Record request: TGI value, item Cc1cc2c(cc1C)[n+](=O)c(C(=O)/C=C/c1ccc3c(c1)OCO3)c(C)n2[O-]
A: > 100 µM

Q: Given the compound O=C1OC(c2ccccc2)(c2ccccc2)c2ccc3ccc(F)cc3c21 , what is its reported TGI?
A: > 100 µM

Q: // TGI lookup, key: COC(NC(N)=O)C(=O)O (centres undefined)
A: > 100 µM

Q: Given the compound C=C(C)[C@@H]1C/C=C(/CO)CC[C@H]2O[C@]2(C)CC/C=C(\C)CC1 , what is its reported TGI?
A: 36 µM

Q: So what's the measured TGI for this one? COCCOC(C)C(=O)C(O)S(=O)(=O)O (centres undefined)
A: > 100 µM

Q: Given the entry O=C1NC(=O)[C@@]2(CC[C@@H](O)C2)c2ccncc21 , report its measured TGI.
A: > 100 µM

Q: Query (compound): Cc1ccc(/C(O)=C/c2nc3cccnc3[nH]c2=O)cc1 ; field requested: TGI
A: > 100 µM

Q: I have this compound here, Cc1ccc(S(=O)(=O)/N=C2/N(C)CCCS2(=O)=O)cc1 , and I need its recorded TGI.
A: > 100 µM

Q: Look at this compound and give its reported TGI. C/C=C/c1cc2c(c(=O)o1)C(=O)[C@@H](O)[C@H](C)O2
A: 31 µM

Q: Value lookup for TGI; key = N#CCCN(CCC#N)c1ccc(/C=C2\SC(=S)NC2=O)cc1
A: > 100 µM

Q: What value of TGI has been reported for the following compound? CCN1C(=O)N(CC)C2C1NN=c1s/c(=C\c3cccs3)c(=O)n12 (centres undefined)
A: > 100 µM

Q: Requested read-out: TGI. Entry: CCCCC(=C=C(C)CO)C1CCCN1C(=O)OC(C)(C)C (centres undefined)
A: 44 µM

Q: I am curious: what TGI value has been reported for NC(=S)Nc1ccc2c(c1)oc1ccccc12 ?
A: > 100 µM

Q: Returns the measured TGI for the input compound. Input: Cc1nc2ccccc2c(=O)n1NC(=O)c1ccccc1[N+](=O)[O-]
A: > 100 µM

Q: Sample CCCc1n[nH]c(=O)n1N1C(=O)C=CC1=O — what was its TGI?
A: > 100 µM

Q: Quick one: TGI of CCCN(CCC)CCc1cc(C(C)=O)n(S(=O)(=O)c2ccc(C)cc2)c1 ?
A: > 100 µM

Q: Sample CCN(CCCl)CCCCCNc1c2ccccc2nc2ccc(OC)cc12 — what was its TGI?
A: 18.1 µM

Q: Fill in the blank: the reported TGI of Cc1ccc(-c2c(C#N)[n+](=O)c3cc(F)c(F)cc3n2[O-])cc1 is ____.
A: 38.9 µM

Q: Give its TGI value. Item: Cc1cc(C(=O)Nc2cc(Oc3ccc4nc(NC(=O)C5CC5)cn4n3)ccc2C)n(C)n1
A: > 10 µM

Q: What TGI value was documented for this compound, CCn1c(-c2ccc(OC)cc2)nc2c1C(=O)c1ccccc1C2=O ?
A: > 100 µM
